Test system: PPARg:RXRa (NR concentration 180 nM, RXRa partner concentration 90 nM)
Experiment: PBM binding z-score (relative to random genomic background probes); higher = stronger binding; sequences stand for … in GC…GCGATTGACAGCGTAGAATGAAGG
For each of the sequences below, state its PBM binding z-score.
Answers are plain numbers.

Take a look at these entries with their results.
INSERT INTO measurements (query_sequence, value_kind, recorded_value) VALUES
  ('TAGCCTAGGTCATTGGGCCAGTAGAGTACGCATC', 'PBM binding z-score', 3.68),
  ('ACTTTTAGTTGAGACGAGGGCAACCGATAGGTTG', 'PBM binding z-score', 0.448);

Please give PBM binding z-score, item by item, for the list that follows.
1. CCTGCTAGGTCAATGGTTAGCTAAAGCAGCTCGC
2. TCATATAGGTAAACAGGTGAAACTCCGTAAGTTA
3. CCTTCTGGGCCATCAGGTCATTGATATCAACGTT
4. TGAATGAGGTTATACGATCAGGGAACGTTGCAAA
5. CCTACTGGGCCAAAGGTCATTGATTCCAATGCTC
6. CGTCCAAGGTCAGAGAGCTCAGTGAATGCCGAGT
7. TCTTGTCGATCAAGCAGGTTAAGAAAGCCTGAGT
8. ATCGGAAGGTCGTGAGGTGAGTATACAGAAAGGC

OUTPUT:
3.33
2.96
2.21
1.33
12
1.95
-0.443
1.68

Please give PBM binding z-score, item by item, for the list that follows.
1. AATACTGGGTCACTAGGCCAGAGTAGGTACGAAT
2. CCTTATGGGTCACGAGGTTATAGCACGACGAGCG
3. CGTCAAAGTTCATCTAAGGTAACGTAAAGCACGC
4. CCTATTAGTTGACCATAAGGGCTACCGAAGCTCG

OUTPUT:
1: 8.02; 2: 8.15; 3: 4.57; 4: 0.355

Please give PBM binding z-score, item by item, for the list that follows.
1. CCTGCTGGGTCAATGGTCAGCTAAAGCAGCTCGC
2. CCTACTGGGCCATTCAGAGGTCCTTGATCATATG
3. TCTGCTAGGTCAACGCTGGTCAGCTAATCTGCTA

OUTPUT:
[3.53, 0.118, 2.09]

Please give PBM binding z-score, item by item, for the list that follows.
1. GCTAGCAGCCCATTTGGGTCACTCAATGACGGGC
2. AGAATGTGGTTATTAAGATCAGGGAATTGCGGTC

OUTPUT:
0.291
0.144

Please give PBM binding z-score, item by item, for the list that follows.
1. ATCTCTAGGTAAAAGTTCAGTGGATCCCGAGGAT
2. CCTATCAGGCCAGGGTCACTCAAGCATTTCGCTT
3. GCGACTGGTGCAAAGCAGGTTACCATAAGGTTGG
4. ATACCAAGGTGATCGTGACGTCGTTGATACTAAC
5. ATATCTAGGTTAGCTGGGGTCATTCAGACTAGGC
6. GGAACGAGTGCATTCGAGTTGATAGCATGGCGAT

OUTPUT:
1. 7.94
2. 0.918
3. 0.344
4. 0.582
5. 5.59
6. 0.302

INPUT: Find the measured PBM binding z-score: item `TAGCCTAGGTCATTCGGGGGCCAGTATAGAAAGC` , target or system PPARg:RXRa (NR concentration 180 nM, RXRa partner concentration 90 nM).
OUTPUT: 3.69
